Tested on: TNFα-FL/Gaussia Luciferase
Test: Dox Induced TNFα-FL-Gluc Assay
Format: cell-based
Settings: ratio of TNFaFLGluc IC50 to PD1ssGluc IC50
experimental_readout: 24 hr Dox Inducible TNFaFLGluc 293FRT/TO: TNF/PD1

Guide cases for 24 hr Dox Inducible TNFaFLGluc 293FRT/TO: TNF/PD1, answers given:
> print(dat)
                               input.smiles  assay.value
1  O=C(Nc1nc(/C=C/c2c[nH]cn2)cs1)c1cccn1Cc1ccnc(F)c1        >4.76
2  CC(C)c1ccc(/C=C/c2csc(NC(=O)c3cccn3Cc3cc(F)nc(F)c3)n2)nc1         >189

Input: Can you share its 24 hr Dox Inducible TNFaFLGluc 293FRT/TO: TNF/PD1? I mean this compound: `CCc1cccc2nc(/C=C/c3csc(NC(=O)c4cccn4Cc4ccnc(F)c4)n3)cn12`
Output: >59.8

----------
Test: Liver Microsome Stability Assay (monkey)
Details: monkey liver microsomes, with NADPH, 1.0 uM compound
Hi, to clarify the labels: Satisfied covers Liver Microsome Stability (Multiple Species): Monkey - % Remaining after 30 min w/NADPH from 3% upward, Not satisfied covers anything below 3%.

> print(dat)
                                   molecule    label.value
1  CN(C)S(=O)(=O)N1CC(Oc2ccc(N3CCC[C@@H]3c3csc(NC(=O)c4cccn4Cc4ccnc(F)c4)n3)cc2)C1  Not satisfied
2  CC(=O)N(C)CCOc1ccc(N2CCC[C@@H]2c2csc(NC(=O)c3cccn3Cc3ccnc(F)c3)n2)cc1  Not satisfied
3  O=C(Nc1nc([C@H]2CCCN2c2ccccc2)cs1)c1cccn1CCC1CCOC1 (stereo partly shown)      Satisfied
4  C[S+]([O-])N1CC(Oc2ccc(N3CCC[C@@H]3c3csc(NC(=O)c4cccn4Cc4ccnc(F)c4)n3)cc2)C1 (stereo partly shown)  Not satisfied
5  CC(C(N)=O)n1cnc(/C=C/c2csc(NC(=O)c3cccn3Cc3ccnc(F)c3)n2)c1 (stereo not shown)      Satisfied
6  O=C(Nc1ccc(N2CCC[C@@H]2c2csc(NC(=O)c3cccn3Cc3ccnc(F)c3)n2)cc1)OC1COC1      Satisfied

Input: Decide: is the reported value of Liver Microsome Stability (Multiple Species): Monkey - % Remaining after 30 min w/NADPH for `COC(=O)Cn1cnc(/C=C/c2csc(NC(=O)c3cccn3Cc3ccnc(F)c3)n2)c1C` equal to or greater than 3%?
Output: Not satisfied

----------
Test: Liver Microsome Stability Assay (mouse)
Details: mouse liver microsomes, with NADPH, 1.0 uM compound
experimental_readout: Liver Microsome Stability (Multiple Species): Mouse - % Remaining after 30 min w/NADPH
A complete answer gives the number and then names the unit.

> print(dat)
                                   compound  assay.value
1  CCOC(=O)Nc1ccc(N2CCC[C@@H]2c2csc(NC(=O)c3cccn3Cc3ccnc(F)c3)n2)cc1        25.1%
2  O=C(Nc1nc(CC2CCCCO2)cs1)c1cccn1Cc1ccncc1 (stereo not shown)          19%
3  CC(=O)N1CCC(n2cnc(/C=C/c3csc(NC(=O)c4cccn4Cc4ccnc(F)c4)n3)c2)CC1        33.9%

Now look at this entry.
Input: Can you share its Liver Microsome Stability (Multiple Species): Mouse - % Remaining after 30 min w/NADPH? I mean this compound: `CC(C)c1cccc2nc(/C=C/c3csc(NC(=O)c4cccn4Cc4ccnc(F)c4)n3)cn12`
Output: 1.62%
